System: MDA-MB-231 (HER2-Low expressing cells)
measurement-notes: MTT cytotoxicity study
Type: cell-based
reported-conditions: Table 2B (719W); 6 h incubation, then 48 hours; mean ± SD, n = 3; read-out: IC50 MDA-MB-231 6 h
endpoint-name: IC50 (nM)
Express your answer in nM, writing the number without its unit.

The measured IC50 that COc1cccc2c1C(=O)c1c(O)c3c(c(O)c1C2=O)C[C@@](O)(C(=O)CO)C[C@@H]3O[C@H]1C[C@H](N)[C@H](O)[C@H](C)O1 showed for MDA-MB-231 (HER2-Low expressing cells) is 260

====

System: SKBR3 (HER2-overexpressing cells)
measurement-notes: MTT cytotoxicity study
Format: cell-based, human
reported-conditions: Table 2B (719W); 6 h incubation, then 48 hours; mean ± SD, n = 3; read-out: IC50 SKBR3 6 h
endpoint-name: IC50 (nM)
Could you give me the number in nM? Just the number is fine.

Form field IC50, entry COc1cccc2c1C(=O)c1c(O)c3c(c(O)c1C2=O)C[C@@](O)(C(=O)CO)C[C@@H]3O[C@H]1C[C@H](N)[C@H](O)[C@H](C)O1 : 240
